- Tested on: 2-phenyl-1,4-benzoquinone-induced writhing
- PROTOCOL_TEXT: 2-phenyl-1,4-benzoquinone-induced writhing (PQW) test in mice
- Type: in vivo
- CONDITION_NOTES: Mus musculus, sc; mice; read-out: ANALGESIC ACTIVITY ED50, POW
REPORTED_ENDPOINT: ED50 (mg/kg)
Numbers only here, please. The scale is mg/kg.

[[record]]
molecule = "C=Cc1cn(N(C)c2ccncc2)c2ccccc12.O=C(O)/C=C\\C(=O)O"
measured_result = 1

[[record]]
molecule = "CN(c1ccncc1)n1ccc2cc([N+](=O)[O-])ccc21.O=C(O)/C=C\\C(=O)O"
measured_result = 1

[[record]]
molecule = "CN(c1ccncc1)n1ccc2ccccc21.O=C(O)/C=C\\C(=O)O"
measured_result = 3.2

[[record]]
molecule = "O=C(O)/C=C\\C(=O)O.c1ccc2c(c1)ccn2Nc1ccncc1 [Example 1, N-(4-Pyridinyl)-1H-indol-1-amine maleate]"
measured_result = 0.86


q: // lookup ED50 for "Cc1cn(Nc2ccncc2)c2ccccc12.O=C(O)C(=O)O"
a: 0.4

q: # iterate: "CCCN(c1ccncc1)n1ccc2ccccc21.O=C(O)/C=C\C(=O)O"
a: 5.1

q: # iterate: "CCc1cn(N(C)c2ccncc2)c2ccccc12.Cl"
a: 0.9

q: # iterate: "CCCN(c1ccncc1)n1cc(C)c2ccccc21.O=C(O)/C=C\C(=O)O"
a: 4.1

q: # iterate: "C=CCN(c1ccncc1)n1ccc2ccccc21.O=C(O)/C=C\C(=O)O"
a: 1.3

Hello, the source for this data is patent US5039811A, in case you need it.
